# Tested on: 7G8
# METHOD DESCRIPTION: qHTS profiling for inhibitors of Plasmodium falciparum proliferation (AID 504749); also: nearly all actives have a fitted effect of over 60% in size
# RECORDED CONDITIONS: P. falciparum in erythrocytes, SYBR Green DNA, 72 h; series mostly up to 28.7 µM
Records with an inconclusive call do not appear. Calls of active or inactive are those of the source. Calls follow the shape of the dose curve; as a rule, active = well fitted inhibition curve with a large enough effect; inconclusive = small, poorly fitted or top-dose-only effect; inactive = flat fitted curve, though single readings scatter.
Parameter call: string, one of active, inactive

molecule_smiles=CN(C)CCOC(=O)COc1ccc(Cl)cc1 category_label=inactive
molecule_smiles=CC(=O)[C@]1(O)Cc2c(O)c3c(c(O)c2[C@@H](O[C@H]2C[C@H](N)[C@H](O)[C@H](C)O2)C1)C(=O)c1ccccc1C3=O category_label=active
molecule_smiles=CN1CCN(CC(=O)N2c3ccccc3C(=O)Nc3cccnc32)CC1 category_label=inactive
molecule_smiles=O=C(CCCN1CCC(O)(c2cccc(C(F)(F)F)c2)CC1)c1ccc(F)cc1 category_label=active

Give the logged outcome of this assay for the following compound: CCN(CC)CCOCCOC(=O)C1(c2ccccc2)CCCC1 active

Give the logged outcome of this assay for the following compound: COCCCC/C(=N\OCCN)c1ccc(C(F)(F)F)cc1 active

* * *

# System: CP247
# METHOD DESCRIPTION: qHTS profiling for inhibitors of Plasmodium falciparum proliferation (AID 504749); also: nearly all actives have a fitted effect of over 60% in size
# RECORDED CONDITIONS: P. falciparum in erythrocytes, SYBR Green DNA, 72 h; series mostly up to 28.7 µM
Records with an inconclusive call do not appear. Active and inactive are the calls of the source. Calls follow the shape of the dose curve; as a rule, active = well fitted inhibition curve with a large enough effect; inconclusive = small, poorly fitted or top-dose-only effect; inactive = flat fitted curve, though single readings scatter.
Parameter call: string, one of true = active, false = inactive

Worked examples, 5 molecules total:
molecule=CCCCCCCC/C=C\CCCCCCCC(=O)NCc1ccc(O)c(OC)c1 category_label=true
molecule=CCN(CC)CCCN(c1ccccc1)C1Cc2ccccc2C1 category_label=true
molecule="CCCCCN(CCCCC)C(=O)C(CCC(=O)O)NC(=O)c1ccc(Cl)c(Cl)c1 (centres undefined)" category_label=false
molecule=Cc1nnc(SCC2=C(C(=O)O)N3C(=O)[C@@H](NC(=O)Cn4cnnn4)[C@H]3SC2)s1 category_label=false
molecule=C[C@H](CS)C(=O)N1CCC[C@H]1C(=O)O category_label=false

Give the logged outcome of this assay for the following molecule: CCCCNc1ccc(C(=O)OCCN(C)C)cc1 false

Give the logged outcome of this assay for the following molecule: CCN(CC)CCNC(=O)c1ccc(NC(C)=O)cc1 false

Give the logged outcome of this assay for the following molecule: CSc1ccc(C(=O)c2[nH]c(=O)[nH]c2C)cc1 false

Give the logged outcome of this assay for the following molecule: CC(=O)Nc1nnc(S(N)(=O)=O)s1 false

Give the logged outcome of this assay for the following molecule: O=C(O)CP(=O)(O)O false

* * *

# METHOD DESCRIPTION: Cell Viability - SH-SY5Y (AID 544);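 also: cells exposed to compound for 40 hours; nearly all actives have a fitted effect of over 55% in size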; also: potency is read from the fitted curve at half-maximal effect
# RECORDED CONDITIONS: SH-SY5Y neuroblastoma cell viability; series mostly up to 92.2 µM
Results filed as inconclusive are left out. Activity calls are given as the source filed them. Calls come from the whole dose curve; as a rule, active = well fitted cell-killing curve with a large enough effect; inconclusive = small, poorly fitted or top-dose-only effect; inactive = flat fitted curve, though single readings scatter.
MEASUREMENT KIND: Potency

molecule_smiles=COC(=O)[C@H]1[C@H]2C[C@@H]3c4[nH]c5cc(OC)ccc5c4CCN3C[C@H]2C[C@@H](OC(=O)c2cc(OC)c(OC)c(OC)c2)[C@@H]1OC measurement_kind=Potency observed_measurement="31.6 µM (active)"
molecule_smiles=CCCCNC(=O)NS(=O)(=O)c1ccc(C)cc1 measurement_kind=Potency observed_measurement=inactive
molecule_smiles=Nc1ncn([C@@H]2O[C@H](CO)[C@@H](O)[C@H]2O)c(=O)n1 measurement_kind=Potency observed_measurement="6.31 µM (active)"
molecule_smiles=NC(=O)N1c2ccccc2C=Cc2ccccc21 measurement_kind=Potency observed_measurement=inactive
molecule_smiles=COc1cc(Cc2cnc(N)nc2N)cc(OC)c1OC measurement_kind=Potency observed_measurement=inactive

Batch lookup, Potency per entry.
1. CN=C(NC#N)NCCSCc1nc[nH]c1C
2. CCCCOCCOCCOCc1cc2c(cc1CCC)OCO2

1: inactive; 2: inactive
